- SYSTEM: human 5-HT1A receptor (Homo sapiens, UniProt P08908)
- Construct: expressed in transfected cells
- Sequence (P08908 whole entry): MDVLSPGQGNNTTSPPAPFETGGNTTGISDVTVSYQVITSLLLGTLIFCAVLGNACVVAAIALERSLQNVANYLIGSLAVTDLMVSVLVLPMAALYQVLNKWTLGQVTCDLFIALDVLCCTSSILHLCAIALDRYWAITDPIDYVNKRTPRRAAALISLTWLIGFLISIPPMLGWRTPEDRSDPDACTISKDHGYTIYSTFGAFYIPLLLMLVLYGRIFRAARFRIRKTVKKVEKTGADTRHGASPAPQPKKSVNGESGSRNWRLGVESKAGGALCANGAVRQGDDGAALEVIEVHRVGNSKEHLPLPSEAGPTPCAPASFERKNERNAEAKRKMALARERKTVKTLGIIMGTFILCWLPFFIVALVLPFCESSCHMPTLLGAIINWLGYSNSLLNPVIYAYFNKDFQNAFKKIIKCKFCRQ
- METHOD: GPCR radioligand binding assay, [3H]-8-OH-DPAT displacement, HEK293 membranes
- ASSAY CONTEXT: 5-HT1A; replicate exp_2
Collected %inh 5-HT1A exp_2 values appear next to each entry.
RESULT TYPE: %inh 5-HT1A exp_2 (%)

1. Cc1ccc(CCNc2ccccc2)cn1 ... -0.501
2. COc1cccc(NC2=NCCCCC2)c1 ... 11
3. CCc1ccc(NC2=NCCCS2)cc1 [D2] ... 27
4. COc1ccccc1C1CCNCC1 ... 98
5. Cc1cc(C)c2c(=O)[nH]n(C)c2n1 ... 6.55
6. O=C(NC1CC1)c1ccccc1O ... 0
7. O=c1[nH]c2c(s1)CCC2 ... -11
8. Fc1ccc2c(C3CCNCC3)c[nH]c2c1 ... 75
9. N#Cc1ccc2ncsc2c1 ... -0.546
10. O=C(CN1CCCC1)c1ccccc1Cl ... 79
11. Clc1ccc2nnnn2n1 ... 4
12. Cc1cc(N)no1 ... -24
13. c1ccc2sc(N3CCNCC3)nc2c1 ... 88
14. CC1C(=O)NC(=O)N1c1ccc(Cl)cc1 (centres unmarked) ... -13
